assayed.system: hPD-L1 (Homo sapiens, UniProt Q9NZQ7)
Sequence (Q9NZQ7 19-238 limits assumed): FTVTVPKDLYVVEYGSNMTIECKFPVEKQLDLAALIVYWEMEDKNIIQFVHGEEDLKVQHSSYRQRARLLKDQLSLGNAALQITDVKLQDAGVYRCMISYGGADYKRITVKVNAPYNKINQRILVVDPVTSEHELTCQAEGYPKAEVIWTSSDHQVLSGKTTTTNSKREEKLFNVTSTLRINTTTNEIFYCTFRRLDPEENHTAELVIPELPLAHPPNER
test.name: Biolayer interferometry
Type: binding
Bridge positions count the residues as written; N and C are the ends. Square brackets hold non-standard residues; d marks the D form. Ends that are not written are not given here. I, II: the chains in the order shown. PEG10 = NCCOCCOCCOCCOCCOCCOCCOCCOCCOCCOCCC(=O)O
measured.property: kon
The number alone won't do; follow it with the unit.

Some solved cases for reference:
substance	measured.property	result
I: MYSSTDHILNKFLILHYALNPT[PEG10]K-NH2 / II: MYSSTDHILNKFLILHYALNPT[PEG10] (amide I:24-II:C) [SPAM4]	kon	2.23e+06 M⁻¹ s⁻¹
MPIFLDHILNKFWILHYA-NH2 [SPAM]	kon	1.41e+06 M⁻¹ s⁻¹
MWSRSDHNLNKFWILHYSANPS-NH2 [SPAM2]	kon	8.78e+06 M⁻¹ s⁻¹

Continue with the next substance.
Input line: Find kon (hPD-L1 (Homo sapiens, UniProt Q9NZQ7)) for the entry MYSSTDHILNKFLILHYALNPT-NH2 [SPAM3]
Output line: 5.78e+06 M⁻¹ s⁻¹
